What EC50 was measured for each of the following?
System: Plasmodium falciparum
MEASUREMENT NOTES: NOVARTIS: Inhibition of Plasmodium falciparum 3D7 (drug-susceptible) proliferation in erythrocyte-based infection assay
Assay type: functional, organism-based
PROTOCOL CONDITIONS: Plasmodium falciparum, 3D7
Give bare numbers, in µM.

Past entries and their recorded results:
COc1cc(C(=O)NC2CC3CCC(C2)N3C2CC2)cc(OC)c1OC (centres undefined) ... 0.45
CCN(CC)C/C=C/C1(O)c2ccccc2-c2ccccc21 ... 1.01

Batch request: EC50 per item, same order as input.
1. COCCCNC(=O)c1cc(NC(=O)CCCCl)ccc1N1CCc2ccccc2C1
2. COc1ccc(C2CC(=O)C3=C(C2)NC(C)=C(C(=O)OC(C)C)C3c2cccc(Cl)c2Cl)cc1OC (centres undefined)
3. Cc1cc(N2CCCCC2)nc(NCc2ccccc2)n1
4. CC1=C(C(=O)OC2CCCCC2)C(c2cccc([N+](=O)[O-])c2)C2=C(CCCC2=O)N1 (centres undefined)
5. NCCNc1cc(-c2ccccc2)nc2ccccc12
6. Cc1ccc(S(=O)(=O)NC(Cc2ccccc2)C(=O)N2CCC(C3CCN(C(=O)c4ccc([N+](=O)[O-])o4)CC3)CC2)cc1 (centres undefined)

Output:
1. 0.331
2. 0.0676
3. 5.76
4. 1.64
5. 0.318
6. 1.91

* * *

What CC50 was measured for each of the following?
MEASUREMENT NOTES: NOVARTIS: Cytotoxicity against human hepatocellular carcinoma cell line (Huh7)
Format: toxicity, cell-based, Huh-7
PROTOCOL CONDITIONS: Huh7 cells (hepatocellular carcinoma cell line)

Past entries and their recorded results:
Oc1ccc(-c2nc3ccccc3s2)cc1CN1CCCCC1 ... > 6.13 µM
Cc1cc(C)cc(NC(=S)NCCO)c1 ... > 100 µM
CN(C)CCCNC(=O)c1ccc(-c2cncc(-c3cccc(O)c3)n2)cc1 ... > 10 µM
Cc1cc(C)n(-c2ccc(NC(=O)C3CCN(Cc4cnc(C)s4)CC3)cc2)n1 ... > 100 µM
CC(C)c1ccc(NC(=O)C=Cc2ccccc2Cl)cc1 ... 17.5 µM
CO[C@H]1O[C@@H]2COC(c3ccccc3)O[C@H]2[C@@H](O)[C@@H]1OCc1ccccc1 (stereo not given in full) ... > 13.8 µM
Cc1ccc2c(c1)N=C(c1ccc([N+](=O)[O-])cc1)CO2 ... > 100 µM
CC(=O)N(Cc1ccc(F)cc1)C1=C(NCCc2ccccc2)C(=O)c2ccccc2C1=O ... 2.91 µM

Batch request: CC50 per item, same order as input.
1. O=[N+]([O-])c1cccc(C(Nc2nccs2)c2ccc3cccnc3c2O)c1 (stereo not given)
2. CCCCCN(C(=O)c1ccc(C(C)(C)C)cc1)C(CC)c1nc2ccccc2c(=O)n1-c1ccccc1OC (stereo not given)

Output:
16.1 µM
> 10 µM

* * *

What CC50 was measured for each of the following?
MEASUREMENT NOTES: NOVARTIS: Cytotoxicity against human hepatocellular carcinoma cell line (Huh7)
Format: toxicity, cell-based, Huh-7
PROTOCOL CONDITIONS: Huh7 cells (hepatocellular carcinoma cell line)

Past entries and their recorded results:
Cc1cc(C)cc(NC2=C(N)C(=O)c3ccccc3C2=O)c1 ... > 100 µM
Cn1cc([N+](=O)[O-])c(C(=O)NN=Cc2c[nH]c3ccccc23)n1 ... > 10 µM
Oc1ccc(Nc2nc(N3CCCC3)c3ccccc3n2)cc1 ... > 10 µM
COC(=O)c1c(C)oc2ccc(N(C(=O)c3ccc(C)cc3)S(=O)(=O)c3ccccc3)cc12 ... > 10 µM
CN(CCCNc1ccnc2cc(Cl)ccc12)C(=O)c1cccc(F)c1 ... > 11.5 µM

Batch request: CC50 per item, same order as input.
1. COC(=O)NCCNC(=O)COC(c1cccs1)c1cccnc1Cl (stereo not drawn)
2. CCN1CCN(c2nc3ccccn3c(=O)c2C=C2SC(=S)N(C(C)C)C2=O)CC1
3. CC[n+]1c(/C=C/c2ccc(OC)cc2)ccc2ccccc21
4. CCCCCCCCCCCC(=O)Oc1ccccc1-c1nc2ccccn2c1NC(C)(C)CC(C)(C)C
5. COc1cncc(-c2cncc(-c3ccc(C)cc3)n2)c1

Output:
["> 10 µM", "79 µM", "> 10 µM", "> 10 µM", "> 100 µM"]

* * *

System: Plasmodium falciparum
MEASUREMENT NOTES: NOVARTIS: Inhibition of Plasmodium falciparum 3D7 (drug-susceptible) proliferation in erythrocyte-based infection assay
Type: functional, organism-based
PROTOCOL CONDITIONS: Plasmodium falciparum, 3D7
Please respond with 1 (yes) when measured EC50 is strictly beneath 500 nM, and with 0 (no) in all other cases.

CCCN(CCC)CC(O)COc1ccccc1C(=O)Nc1ccccc1 (centres undefined) ... 1 (yes)
CC1=C(CO)C(=O)O[C@@H]([C@@H](C)[C@H]2CC[C@H]3[C@@H]4C[C@H]5O[C@]56[C@@H](O)C=CC(=O)[C@]6(C)C4CC[C@]23C)C1 (some centres undefined) ... 0 (no)

Input: Check if EC50 falls below 500 nM for `CCOC(=O)c1cnc2c(OC)cccc2c1Nc1cc(C)c(Cl)cc1OC` .
Output: 0 (no)

Input: Check if EC50 falls below 500 nM for `CCCOC(=O)c1c(NC(=O)c2c(I)cnn2C)sc2c1CCCCC2` .
Output: 0 (no)

* * *

MEASUREMENT NOTES: NOVARTIS: Cytotoxicity against human hepatocellular carcinoma cell line (Huh7)
Format: toxicity, cell-based, Huh-7
PROTOCOL CONDITIONS: Huh7 cells (hepatocellular carcinoma cell line)
REPORTED PROPERTY: CC50

COC(=O)C1=C(C)NC2=C(C(=O)CC(c3ccccc3Cl)C2)C1c1ccc([N+](=O)[O-])cc1 (stereo unspecified) ... > 100 µM
CCN(CC)c1scc(-c2ccc(Cl)cc2)[s+]1 ... 25.4 µM
COc1ccc(Cn2c(SCC(=O)Nc3ccccc3OC)nc3ccsc3c2=O)cc1 ... > 10 µM
COc1cc(C(=O)NCc2ccco2)ccc1OC1CCN(CC(c2ccccc2)c2ccccc2)CC1 ... > 10 µM
CC(CCCC(C)(C)O)Nc1cncc(-c2ccc(C(N)=O)cc2)n1 (stereo unspecified) ... > 10 µM
CN(C)CCCNc1ncnc2c1[nH]c1ccc(Br)cc12 ... 26.5 µM
CCC(c1nc2ccccc2c(=O)n1-c1ccccc1OC)N(CCc1ccccc1)C(=O)c1cccc(OC)c1 (stereo unspecified) ... > 10 µM
COc1cc(/C=C/c2nc(O)nc(O)c2[N+](=O)[O-])cc(Br)c1O ... > 9.11 µM

Batch request: CC50 per item, same order as input.
1. COc1cc(C(=O)Nc2cnc3ccccc3c2)ccc1-n1cnnn1
2. C=CC[N+]1(CC#Cc2cccc3ccccc23)CCCCC1
3. FC(F)(F)c1ccc(-c2nc(C34CC5CC(CC(C5)C3)C4)cs2)cc1
4. O=C1CC(c2nc3ccccc3n2CCCOc2ccccc2)CN1c1ccc(F)cc1 (stereo unspecified)
5. O=C1c2ccccc2-c2nnc(-c3ccc(Br)cc3)cc21
6. CCN(CC)CCCC(C)Nc1nc(/C=C/c2ccccc2OC)nc2cc(Cl)ccc12 (stereo unspecified)

Output:
1. > 100 µM
2. > 100 µM
3. > 10 µM
4. > 10 µM
5. > 100 µM
6. > 10 µM

Batch request: CC50 per item, same order as input.
1. CCOC(=O)C1=C(C)NC2=C(C(=O)C(C(=O)OCC)C(c3cccc(OC)c3)C2)C1c1ccc(Br)cc1 (stereo unspecified)
2. CCS/C(Cl)=C(/NC(=O)c1ccccc1)[P+](c1ccccc1)(c1ccccc1)c1ccccc1
3. CC(C)(C)c1ccc(Cn2nnc3c(O)nc(C4CCN(C(=O)c5ccccc5)CC4)nc32)cc1
4. Brc1ccc(-c2cn3c([n+]2-c2ccccc2)SCC3)cc1
5. CCC1CCCCN1C(=O)c1cc(-c2ccccc2OC)on1 (stereo unspecified)
6. Cn1nc(C(F)(F)F)c(-c2ccc(F)cc2)c1NC(=O)Nc1ccc(F)cc1
7. COc1ccc(-c2c(C(F)(F)F)nn(C)c2NC(=O)Nc2ccc(F)cc2F)cc1
8. C=CCn1c(COc2ccccc2C)nnc1SCC(=O)O

Output:
["> 100 µM", "> 10 µM", "> 100 µM", "> 100 µM", "> 10 µM", "23.6 µM", "78.2 µM", "> 100 µM"]

Batch request: CC50 per item, same order as input.
1. CCNC(=O)[C@@H]1C[C@@H](NC2C3CC4CC(C3)CC2C4)CN1Cc1cccc(OC)c1OC (stereo partly specified)
2. CC1(C)CC(N=c2cc(-c3ccccc3)oc3ccc(Cl)cc23)CC(C)(C)N1
3. N#CC(=CC=Cc1ccc([N+](=O)[O-])o1)c1nc2ccccc2[nH]1
4. O=C(c1ccc([N+](=O)[O-])cc1)c1ccc(N2CCOCC2)c([N+](=O)[O-])c1
5. CCn1c(SCCCCNC(=O)c2cc([N+](=O)[O-])cc([N+](=O)[O-])c2)nc(-c2ccc(C)cc2)c1-c1ccc(C)cc1
6. Cc1nc2ncccn2c1-c1csc(Nc2ccccn2)n1
7. c1csc(CN2CCc3nc(N4CCCCC4)sc3C2)c1

Output:
72.2 µM
9.6 µM
8.69 µM
> 100 µM
> 10 µM
> 100 µM
> 10 µM
